assay type: physicochemical, mice; details: stability in mice plasma/blood QC sample, −80°C, spiked concentration 500
Please respond with reported Accuracy (RE, %) Frozen for 30 days for every item in the list.

Summary for this compound, COc1c(O)cc(O)c2c(=O)cc(-c3ccccc3)oc12 [Wogonin, wogonin] : Accuracy (RE, %) Frozen for 30 days is 10.3%

Summary for this compound, CC(C)=CCC[C@](C)(O[C@@H]1O[C@H](CO)[C@@H](O)[C@H](O)[C@H]1O)[C@H]1CC[C@]2(C)[C@@H]1[C@H](O)C[C@@H]1[C@@]3(C)CC[C@H](O[C@@H]4O[C@H](CO)[C@@H](O)[C@H](O)[C@H]4O[C@@H]4O[C@H](CO)[C@@H](O)[C@H](O)[C@H]4O)C(C)(C)[C@@H]3CC[C@]12C [Rd, Ginsenoside Rd] : Accuracy (RE, %) Frozen for 30 days is 12.2%

Summary for this compound, COc1c(O[C@@H]2O[C@H](C(=O)O)[C@@H](O)[C@H](O)[C@H]2O)cc(O)c2c(=O)cc(-c3ccccc3)oc12 [Wogonoside, wogonoside] : Accuracy (RE, %) Frozen for 30 days is 11.2%

Summary for this compound, COc1ccc(-c2coc3cc(O)ccc3c2=O)cc1 [Formononetin, formononetin] : Accuracy (RE, %) Frozen for 30 days is 4.9%

Summary for this compound, O=c1c(O)c(-c2ccc(O)c(O)c2)oc2cc(O)cc(O)c12 [quercetin, quecertin] : Accuracy (RE, %) Frozen for 30 days is 14.7%

Summary for this compound, O=C1C[C@@H](c2ccc(O[C@@H]3O[C@H](CO)[C@@H](O)[C@H](O)[C@H]3O)cc2)Oc2cc(O)ccc21 [Liquiritin] : Accuracy (RE, %) Frozen for 30 days is 10.9%

Summary for this compound, COc1cc(CCC(C)=O)ccc1O [zingerone] : Accuracy (RE, %) Frozen for 30 days is 12.7%

Summary for this compound, CCCCC[C@H](O)CC(=O)CCc1ccc(O)c(OC)c1 [(6)-Gingerol, 6-gingernol] : Accuracy (RE, %) Frozen for 30 days is 1.2%

Summary for this compound, O=c1cc(-c2ccccc2)oc2cc(O)c(O)c(O)c12 [Baicalein, baicalein] : Accuracy (RE, %) Frozen for 30 days is 9%

Summary for this compound, CC(C)=CCC[C@](C)(O[C@@H]1O[C@H](CO)[C@@H](O)[C@H](O)[C@H]1O)[C@H]1CC[C@]2(C)[C@@H]1[C@H](O)C[C@@H]1[C@@]3(C)CC[C@H](O)C(C)(C)[C@@H]3[C@@H](O[C@@H]3O[C@H](CO)[C@@H](O)[C@H](O)[C@H]3O[C@@H]3O[C@@H](C)[C@H](O)[C@@H](O)[C@H]3O)C[C@]12C [Re, ginsenoside Re] : Accuracy (RE, %) Frozen for 30 days is 8.9%

Summary for this compound, CC(C)=CCC[C@](C)(O[C@@H]1O[C@H](CO)[C@@H](O)[C@H](O)[C@H]1O)[C@H]1CC[C@]2(C)[C@@H]1[C@H](O)C[C@@H]1[C@@]3(C)CC[C@H](O)C(C)(C)[C@@H]3[C@@H](O[C@@H]3O[C@H](CO)[C@@H](O)[C@H](O)[C@H]3O)C[C@]12C [Rg1, ginsenoside Rg1] : Accuracy (RE, %) Frozen for 30 days is 12.5%

Summary for this compound, CC1(C)[C@@H](O)CC[C@]2(C)[C@H]3C(=O)C=C4[C@@H]5C[C@@](C)(C(=O)O)CC[C@]5(C)CC[C@@]4(C)[C@]3(C)CC[C@@H]12 [GA, glycyrrhetinic acid] : Accuracy (RE, %) Frozen for 30 days is 13.5%

Summary for this compound, O=C(O)[C@H]1O[C@@H](Oc2cc3oc(-c4ccccc4)cc(=O)c3c(O)c2O)[C@H](O)[C@@H](O)[C@@H]1O [Baicalin, baicalin] : Accuracy (RE, %) Frozen for 30 days is 4.9%

Summary for this compound, CC(C)=CCC[C@](C)(O)[C@H]1CC[C@]2(C)[C@@H]1[C@H](O)C[C@@H]1[C@@]3(C)CC[C@H](O[C@@H]4O[C@H](CO)[C@@H](O)[C@H](O)[C@H]4O[C@@H]4O[C@H](CO)[C@@H](O)[C@H](O)[C@H]4O)C(C)(C)[C@@H]3CC[C@]12C [Rg3, ginsenoside Rg3] : Accuracy (RE, %) Frozen for 30 days is 0.4%
